Values compiled from the supplement of paper PMC10567573.

Here, each record is paired with measured protein stability index data.
B1: STEAP1 (parent)
chain: WMLTRKQFGLLSFFFAVLHAIYSL

# Variants of: B1
# method: protein stability index of a GFP-peptide fusion (GPS, HEK-293T) (PSI 1-6); higher = more stable;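 note: lentivirally expressed fusions sorted by FACS into six bins by GFP to DsRed ratio, PSI derived from sequencing read proportions per bin multiplied by bin number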
# cond: c terminus: a fixed tail appended

{"ordered_residues": "WMLTRKQFGLLSFFFAVLHADYSL", "protein stability index": 3.17}
{"ordered_residues": "WMLTCKQFGLLSFFFAVLHAIYSL", "protein stability index": 1.52}
{"ordered_residues": "WMLTRKQFGLLSFFKAVLHAIYSL", "protein stability index": 1.58}
{"ordered_residues": "WMLTRKQFGLLSFFFAVLHVIYSL", "protein stability index": 1.08}
{"ordered_residues": "WMLTRKQFGLLSFFFAVLHAIYRL", "protein stability index": 2.43}
{"ordered_residues": "WMLTRKQFGLLSFFFAALHAIYSL", "protein stability index": 2.25}
{"ordered_residues": "WMLTRKQNGLLSFFFAVLHAIYSL", "protein stability index": 1.73}
{"ordered_residues": "WMLTRKQFGLLSFFFAVLHAILSL", "protein stability index": 1.79}
{"ordered_residues": "WMLTRKQFGLLVFFFAVLHAIYSL", "protein stability index": 1.67}
{"ordered_residues": "WMLTRKQFGLLSFFFAVLHAYYSL", "protein stability index": 1.95}
{"ordered_residues": "WMLTRKQFGLLSFFFAVLHAAYSL", "protein stability index": 3.66}
{"ordered_residues": "WMLTRKQFGLLSFFFAVLHAIYHL", "protein stability index": 1.71}
{"ordered_residues": "WMLTRKQFYLLSFFFAVLHAIYSL", "protein stability index": 2.75}
{"ordered_residues": "WMLTRKQFGLLSFFFAVLRAIYSL", "protein stability index": 1.74}
{"ordered_residues": "WDLTRKQFGLLSFFFAVLHAIYSL", "protein stability index": 1.58}
{"ordered_residues": "WMLTRKQFGLPSFFFAVLHAIYSL", "protein stability index": 1.57}
{"ordered_residues": "WMLTRKEFGLLSFFFAVLHAIYSL", "protein stability index": 1.21}
{"ordered_residues": "WMLTRKQFGLLSFFFAVLHAGYSL", "protein stability index": 2.17}
{"ordered_residues": "WMLTRKQFGLFSFFFAVLHAIYSL", "protein stability index": 1.72}
{"ordered_residues": "WMLTRKQFGLLSFFFACLHAIYSL", "protein stability index": 2.6}
{"ordered_residues": "WMLTRKQFGLLSFFFAVLHAIYSF", "protein stability index": 1.46}
{"ordered_residues": "WMLTRKQFGLLSFFFAWLHAIYSL", "protein stability index": 2.33}
{"ordered_residues": "WMLTRKQFWLLSFFFAVLHAIYSL", "protein stability index": 2.24}
{"ordered_residues": "WMLTRKQFGLLSFFYAVLHAIYSL", "protein stability index": 1.71}
{"ordered_residues": "WMLTRKQFGLLSFKFAVLHAIYSL", "protein stability index": 2.49}
{"ordered_residues": "WSLTRKQFGLLSFFFAVLHAIYSL", "protein stability index": 1.52}
{"ordered_residues": "WMLTRKQFGILSFFFAVLHAIYSL", "protein stability index": 2.05}
{"ordered_residues": "WMLTRKQFGHLSFFFAVLHAIYSL", "protein stability index": 2.09}
{"ordered_residues": "WMLTRKQFGLLSFFFAVLMAIYSL", "protein stability index": 3.02}
{"ordered_residues": "WQLTRKQFGLLSFFFAVLHAIYSL", "protein stability index": 1.77}
{"ordered_residues": "WMLTRKQFGLLSFFFAPLHAIYSL", "protein stability index": 2.19}
{"ordered_residues": "WMLTRKQFGDLSFFFAVLHAIYSL", "protein stability index": 2.52}
{"ordered_residues": "WMLTRKQFGLLSCFFAVLHAIYSL", "protein stability index": 2.02}
{"ordered_residues": "WMLTRKQFGELSFFFAVLHAIYSL", "protein stability index": 2.17}
{"ordered_residues": "WMLTREQFGLLSFFFAVLHAIYSL", "protein stability index": 2.56}
{"ordered_residues": "WMLTRKQFGLLSFFFSVLHAIYSL", "protein stability index": 1.45}
{"ordered_residues": "WMLTRKQFGLLSFFFAVLHAIRSL", "protein stability index": 2.46}
{"ordered_residues": "WMLTRKQFGLLLFFFAVLHAIYSL", "protein stability index": 1.66}
{"ordered_residues": "WMLTRKQFGLLQFFFAVLHAIYSL", "protein stability index": 2.38}
{"ordered_residues": "WMLTRKQFGLLSFFFAVLHAIYNL", "protein stability index": 2.21}
{"ordered_residues": "WMLTRKQGGLLSFFFAVLHAIYSL", "protein stability index": 1.18}
{"ordered_residues": "WMLTRKQFGLLSFFMAVLHAIYSL", "protein stability index": 1.62}
{"ordered_residues": "WMLTRKQFGLLDFFFAVLHAIYSL", "protein stability index": 1.28}
{"ordered_residues": "WMLTRKQFGLLGFFFAVLHAIYSL", "protein stability index": 1.75}
{"ordered_residues": "WMLTRKQFMLLSFFFAVLHAIYSL", "protein stability index": 2.12}
{"ordered_residues": "WMGTRKQFGLLSFFFAVLHAIYSL", "protein stability index": 1.76}
{"ordered_residues": "WMLTRKQFGLLSFFFAVLHFIYSL", "protein stability index": 2.8}
